The values you see were collected from ChEMBL document CHEMBL1122041.

# Target or test system: Dihydrofolate reductase (Homo sapiens)
# Assay text: Competitive inhibition of mammalian dihydrofolate reductase

Test smiles	Ki (nM)
Cc1nc(N)nc(N)c1NC(=O)C12CC3CC(CC(C3)C1)C2	9

* * *

# Target or test system: Dihydrofolate reductase (Homo sapiens)
# Assay text: Noncompetitive inhibition of mammalian Dihydrofolate reductase
pKi: −log10 of the molar value.

Test smiles	pKi
Cc1nc(N)nc(N)c1-c1cccc2ccccc12	4.25
